# Test system: HCV replicon (1b) cells
# test_description: Cell-based HCV replicon assay
pEC50: −log10 of the molar value.

mol_smiles	relation_sign	pEC50
C[C@@]1(Cl)[C@H](O)[C@@H](CO)O[C@H]1n1ccc(N)nc1=O	=	5.00
CCOc1nc(N)nc2c1ncn2[C@@H]1O[C@H](CO)[C@@H](O)[C@@]1(C)N	=	4.54
CC(=O)N[C@]1(C)[C@H](O)[C@@H](CO)O[C@H]1n1ccc(N)nc1=O	=	4.00
C[C@@]1(n2ccnn2)[C@H](O)[C@@H](CO)O[C@H]1n1ccc(N)nc1=O	<	4.00
C[C@@]1(S(C)(=O)=O)[C@H](O)[C@@H](CO)O[C@H]1n1ccc(N)nc1=O	<	4.00

* * *

# System: replicon cells (1b-Con1)
# test_description: Cytotoxicity MTS assay in replicon cells
# run_parameters: CC50, MTS assay, three days post dosing
Cytotoxicity reference

compound	Cytotoxicity
C[C@H](NP(=O)(OC[C@H]1O[C@@H](n2ccc(N)nc2=O)[C@](C)(N)C1O)Oc1ccccc1)C(=O)OCC(C)(C)C (stereo partly drawn)	>100 µM
C[C@H](NP(=O)(OC[C@H]1O[C@@H](n2ccc(=O)[nH]c2=O)[C@](C)(N)C1O)Oc1ccccc1)C(=O)OCC(C)(C)C (stereo partly drawn)	>100 µM
CC(C)OC(=O)[C@H](C)NP(=O)(OC[C@H]1O[C@@H](n2ccc(=O)[nH]c2=O)[C@](C)(N)[C@@H]1O)Oc1ccccc1 (stereo partly drawn) [drawing 239]	>100 µM
CC(C)OC(=O)[C@H](C)NP(=O)(OC[C@H]1O[C@@H](n2ccc(N)nc2=O)[C@](C)(N)C1O)Oc1ccccc1 (stereo partly drawn)	>100 µM
COc1nc(N)nc2c1ncn2[C@@H]1O[C@H](COP(=O)(N[C@@H](C)C(=O)OCC(C)(C)C)Oc2ccccc2)C(O)[C@@]1(C)N (stereo partly drawn)	>100 µM
CC(C)COC(=O)[C@H](C)NP(=O)(OC[C@H]1O[C@@H](n2ccc(N)nc2=O)[C@](C)(N)[C@@H]1O)Oc1ccccc1 (stereo partly drawn)	50 µM
CCOc1nc(N)nc2c1ncn2[C@@H]1O[C@H](COP(=O)(N[C@@H](C)C(=O)OC)Oc2ccccc2)C(O)[C@@]1(C)N (stereo partly drawn) [drawing 243]	>100 µM
CCOc1nc(N)nc2c1ncn2[C@@H]1O[C@H](COP(=O)(N[C@@H](C)C(=O)OC)Oc2ccccc2)[C@@H](O)[C@@]1(C)SC (stereo partly drawn) [drawing 242]	>100 µM
CCOC(=O)[C@H](C)NP(=O)(OC[C@H]1O[C@@H](n2cnc3c(OC)nc(N)nc32)[C@](C)(N)[C@@H]1O)Oc1ccccc1 (stereo partly drawn) [drawing 248]	>100 µM
C#C[C@]1(C)[C@H](O)[C@@H](COP(=O)(N[C@@H](C)C(=O)OC(C)C)Oc2ccccc2)O[C@H]1n1ccc(=O)[nH]c1=O (stereo partly drawn)	>100 µM
COc1nc(N)nc2c1ncn2[C@@H]1O[C@@H]2COP(=O)(OC(C)C)O[C@H]2[C@@]1(C)N (stereo partly drawn) [drawing 240]	>100 µM
C[C@@]1(N)[C@@H]2OP(=O)(OC3CCC3)OC[C@H]2O[C@H]1n1ccc(N)nc1=O (stereo partly drawn) [drawing 247]	>50 µM
